- MEASURED TARGET: T1, REF6 F1339A (Arabidopsis thaliana, UniProt Q9STM3 1223-1360, F1339A)
- T1 sequence: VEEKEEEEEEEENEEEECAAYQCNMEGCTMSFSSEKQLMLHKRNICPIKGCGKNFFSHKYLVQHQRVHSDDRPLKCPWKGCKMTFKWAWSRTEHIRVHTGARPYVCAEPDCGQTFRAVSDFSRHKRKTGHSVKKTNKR
- EXPERIMENTAL PROTOCOL: MST; MST: 20 mM HEPES pH 7.3, 150 mM NaCl, 0.2 mM TCEP, 0.5% CA-630, 25 C; EMSA: 30 uM protein, 10 uM dsDNA, 20 mM Tris pH 8.0, 100 mM NaCl, 2.5 mM MgCl2, 0.1% CA-630, 10% glycerol, 1 uM ZnSO4, 1 mM DTT, 4 C
- TEST CONDITIONS: protein: recombinant; tags: His6-MBP or GST, TEV-cleavable; label: FAM in MST; none in crystal and EMSA; 5' overhang 1 nt on both strands, 15 bp
REPORTED PROPERTY: Kd (nM)

>>> measured_number("NAC004 m5 (dsDNA) DNA 1: CTTTCTCTGTTTTGTC DNA 2: GGACAAAACAGAGAAA")
500
